# target.system: luciferase (Photinus pyralis)
# Sequence (P08659 whole entry): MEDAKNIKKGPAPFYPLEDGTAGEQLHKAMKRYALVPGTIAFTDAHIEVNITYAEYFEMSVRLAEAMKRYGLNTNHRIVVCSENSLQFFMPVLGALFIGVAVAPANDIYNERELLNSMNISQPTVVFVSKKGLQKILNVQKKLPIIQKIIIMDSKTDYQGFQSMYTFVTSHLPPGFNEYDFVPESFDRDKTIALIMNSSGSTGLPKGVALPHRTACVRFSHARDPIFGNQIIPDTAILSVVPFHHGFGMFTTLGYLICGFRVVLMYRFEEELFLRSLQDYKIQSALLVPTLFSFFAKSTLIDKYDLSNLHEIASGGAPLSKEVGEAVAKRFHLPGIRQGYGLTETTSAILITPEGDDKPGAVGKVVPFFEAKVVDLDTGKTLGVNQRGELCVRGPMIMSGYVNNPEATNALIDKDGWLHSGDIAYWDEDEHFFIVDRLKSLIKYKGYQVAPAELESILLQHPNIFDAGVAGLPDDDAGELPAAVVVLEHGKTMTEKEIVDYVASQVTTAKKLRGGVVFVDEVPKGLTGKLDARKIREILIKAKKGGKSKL
# experiment.description: Light yield of the luciferin-luciferase reaction (luciferase detection, TopCount luminescence, 0-420 min)
# Assay type: biochemical, firefly
# conditions.used: 5 mM reducing agent, 0.5 M Tris and 0.25 M phosphate
value.kind: Light Yield

Known Light Yield results, listed for orientation:
- molecule: "O=C(O)CCP(CCC(=O)O)CCC(=O)O [TCEP, Tris(2-carboxyethyl) phosphine]"
  target.system: "luciferase (Photinus pyralis)"
  readout.value: "122.1 10^9counts"
- molecule: "O=S(O)(O)=S [Na2S2O3, sodium-thiosulfate]"
  target.system: "luciferase (Photinus pyralis)"
  readout.value: "147.7 10^9counts"

Kindly note the recorded Light Yield for O[C@H](CS)[C@H](O)CS (racemic) [DTT, dithiothreitol] , which is 167.5 10^9counts

Kindly note the recorded Light Yield for O=S([O-])[O-].[Na+].[Na+] [Na2SO3, sodium-sulfite] , which is 136.8 10^9counts
